# Tested on: U2932 TK216-resistant clone 3
# method.description: cell proliferation relative to vehicle (% of vehicle); higher = less growth inhibition
# applied.conditions: 500 nM; 72 h
Counter-ions that a name gives are not always drawn.
quantity.kind: cell proliferation
One number for each entry.

[[record]]
molecule = "Nc1nc(F)nc2c1ncn2[C@@H]1O[C@H](COP(=O)(O)O)[C@@H](O)[C@@H]1O [Fludarabine Phosphate]"
measured_value = 104

[[record]]
molecule = "NC(=O)NO [Hydroxyurea]"
measured_value = 103

[[record]]
molecule = "COc1cc2ncnc(Nc3ccc(O)c(Br)c3)c2cc1OC"
measured_value = 105

[[record]]
molecule = "CN(C)C(=N)NC(=N)N [Metformin HCl]"
measured_value = 108


// below: cell proliferation requested for another molecule
// query cell proliferation value for entry O=C(CCCCCCNC(=O)c1cnc(N(c2ccccc2)c2ccccc2)nc1)NO [Rocilinostat (ACY-1215)]
96.5

----------
Kindly supply the reported cell proliferation values for the records listed here.
# Tested on: U2932 TK216-resistant clone 3
# method.description: cell proliferation relative to vehicle (% of vehicle); higher = less growth inhibition
# applied.conditions: 500 nM; 72 h
Structures can show the parent of a compound that is named as a salt.

Some solved entries appear below for comparison.
[[record]]
compound = "CN1CCN(CCOc2cc(OC3CCOCC3)c3c(Nc4c(Cl)ccc5c4OCO5)ncnc3c2)CC1"
quantity_kind = "cell proliferation"
measured_value = 101

[[record]]
compound = "COC1=CC(c2cc3ccccc3[nH]2)=N/C1=C\\c1[nH]c(C)cc1C [Obatoclax Mesylate (GX15-070)]"
quantity_kind = "cell proliferation"
measured_value = 8.59


cell proliferation lookup needed for COc1cc([C@@H]2c3cc4c(cc3[C@@H](O[C@@H]3O[C@@H]5CO[C@@H](C)O[C@H]5[C@H](O)[C@H]3O)[C@H]3COC(=O)[C@H]23)OCO4)cc(OC)c1O [Etoposide] , thanks.
74.9

----------
# System: U2932 TK216-resistant clone 2
# method.description: cell proliferation relative to vehicle (% of vehicle); higher = less growth inhibition
# applied.conditions: 500 nM; 72 h
quantity.kind: cell proliferation
Answers are plain numbers.

[[record]]
smiles_repr = "CC#CC(=O)N1CCC[C@H]1c1nc(-c2ccc(C(=O)Nc3ccccn3)cc2)c2c(N)nccn12"
measured_value = 64.8

[[record]]
smiles_repr = "Cc1[nH]nc2ccc(-c3cncc(OC[C@@H](N)Cc4ccccc4)c3)cc12"
measured_value = 41.7


Quick batch: cell proliferation for everything below.
1. CC(C)(C)c1nc(-c2cccc(NS(=O)(=O)c3c(F)cccc3F)c2F)c(-c2ccnc(N)n2)s1
2. Cc1ccc(C(=O)N(CCCN)[C@@H](c2nc3cc(Cl)ccc3c(=O)n2Cc2ccccc2)C(C)C)cc1
3. Cn1c(Nc2ccc(C(F)(F)F)cc2)nc2cc(Oc3ccnc(-c4ncc(C(F)(F)F)[nH]4)c3)ccc21

1. 101
2. 10.8
3. 80.7

Look up cell proliferation for the entries below, preserving their order.
1. COc1ccc(-n2c(SCCCN3C(=O)c4cccc5cccc(c45)C3=O)nnc2-c2ccncc2)cc1
2. Cc1cnc(-c2ccccc2C(C)C)nc1NCc1ccc(-n2ccnn2)cc1
3. N#C/C(=C(/N)Sc1ccc(N)cc1)c1ccccc1C(F)(F)F
4. COc1cc(Nc2nc3ccccc3nc2NS(=O)(=O)c2ccc(NC(=O)c3ccc(C)c(OC)c3)cc2)cc(OC)c1

97.3
97.8
98
106

----------
Give measured cell proliferation for each item. Keep answers brief.
# System: U2932 TK216-resistant clone 3
# method.description: cell proliferation relative to vehicle (% of vehicle); higher = less growth inhibition
# applied.conditions: 50 nM; 72 h
Where a name gives a salt, the structure may show the parent alone.
Give bare numbers.

Below are some compounds; for each one, tell me its cell proliferation.
1. N#Cc1c(Oc2ccc(F)c(NC(=O)Cc3cccc(C(F)(F)F)c3)c2)ccc2nc(NC(=O)C3CC3)sc12
2. Cn1cc(C2=C(c3ccc(Cl)cc3Cl)C(=O)NC2=O)c2ccccc21
3. CN[C@@H](C)C(=O)N[C@H]1CN(C(=O)CC(C)C)CC[C@H]2CC[C@@H](C(=O)NC(c3ccccc3)c3ccccc3)N2C1=O
4. O=C(c1ccc(/C=C/c2n[nH]c3ccccc23)cc1)N1CCNCC1

[107, 105, 94.6, 104]

Kindly give each listed record's cell proliferation.
1. COc1ccc(S(=O)(=O)N(C(C)=O)c2ccccc2/C=C/c2cc[n+]([O-])cc2)cc1
2. CC[C@@]1(O)C(=O)OCc2c1cc1n(c2=O)Cc2cc3cc(O)ccc3nc2-1 [(S)-10-Hydroxycamptothecin]
3. CN(C)CCOc1ccc(/C(=C(/CCCl)c2ccccc2)c2ccccc2)cc1 [Toremifene Citrate]
4. COc1cc2c(Oc3ccc4[nH]c(C)cc4c3F)ncnc2cc1OCCCN1CCCC1
5. NCC(=O)Nc1ccc(-n2nc(C(F)(F)F)cc2-c2ccc3c(ccc4ccccc43)c2)cc1
6. COc1cc(Nc2ncc(F)c(Nc3ccc4c(n3)N(COP(=O)(O)O)C(=O)C(C)(C)O4)n2)cc(OC)c1OC [Fostamatinib (R788)]
7. Cc1cc(Nc2nc(N[C@@H](C)c3ncc(F)cn3)ncc2Cl)[nH]n1
8. O=C(NOC[C@H](O)CO)c1ccc(F)c(F)c1Nc1ccc(I)cc1F

1. 99.5
2. 7.4
3. 101
4. 99.8
5. 95.3
6. 97.2
7. 105
8. 96.6

Give cell proliferation for each listed item.
1. CCCCCCCCc1ccc(CCC(N)(CO)CO)cc1 [Fingolimod (FTY720) HCl]
2. CCC[C@H](Nc1nc(-c2ccc(NC(=O)NCC)c(OC)c2)ncc1C)c1cccnc1
3. Oc1nc(-c2ccc(C(F)(F)F)cc2)nc2c1CSCC2
4. CC(C)CCN1c2nc(Nc3cc(F)c(O)c(F)c3)ncc2N(C)C(=O)C1C (stereo not given)
5. CO[C@@]12[C@H](COC(N)=O)C3=C(C(=O)C(C)=C(N)C3=O)N1C[C@@H]1N[C@@H]12
6. Cc1cnc(-c2cnc(NCCNc3ccc(C#N)cn3)nc2-c2ccc(Cl)cc2Cl)[nH]1
7. Cc1cc(Nc2cc(N3CCN(C)CC3)nc(/C=C/c3ccccc3)n2)n[nH]1 [ENMD-2076 L-(+)-Tartaric acid]

1: 99.6; 2: 8; 3: 111; 4: 106; 5: 96.6; 6: 107; 7: 105

List the reported cell proliferation of each compound below.
1. CC(C)(C)c1nc(-c2cccc(NS(=O)(=O)c3c(F)cccc3F)c2F)c(-c2ccnc(N)n2)s1
2. C=CCn1c(=O)c2cnc(Nc3ccc(N4CCN(C)CC4)cc3)nc2n1-c1cccc(C(C)(C)O)n1
3. CC1(C)CNc2cc(NC(=O)c3cccnc3NCc3ccncc3)ccc21 [Motesanib Diphosphate (AMG-706)]
4. Oc1cccc(-c2nc(N3CCOCC3)c3oc4ncccc4c3n2)c1
5. Clc1ccc(C2(c3ccc(-c4cn[nH]c4)cc3)CCNCC2)cc1

106
99.7
104
94.2
94.6

Hi, could you look up cell proliferation for each item in my list?
1. COc1cc(OCc2cccc(-c3ccccc3)c2C)cc(OC)c1CN1CCCC[C@H]1C(=O)O
2. CN1CCCN(C(=O)c2cccc(-c3ccc(/C=C4/C(=O)Nc5ccc(Cl)cc54)o3)c2)CC1
3. N=C1NC(=O)/C(=C/c2ccc(O)cc2)S1

[96.8, 97, 107]

Look at each compound and report its cell proliferation.
1. COC(=O)c1ccc([C@H]2c3[nH]c4ccccc4c3C[C@H](C(=O)OC)N2C(=O)CCl)cc1
2. O=C(O)C(Cc1c[nH]c2ccccc12)N1C(=O)c2ccccc2C1=O (stereo not given)

1. 84
2. 99.2

Batch of 4 compounds: report cell proliferation for each.
1. NC(=O)c1ncn([C@@H]2O[C@H](CO)[C@@H](O)[C@H]2O)c1N
2. CC(C)NCCCn1c(Sc2cc3c(cc2I)OCO3)nc2c(N)ncnc21
3. CC[C@H](Nc1ncnc2[nH]cnc12)c1nc2cccc(F)c2c(=O)n1-c1ccccc1
4. O=C(O)CCNc1cc(N2CCc3ccccc3CC2)nc(-c2ccccn2)n1

[98.7, 105, 97.8, 105]

Please report cell proliferation for every entry that follows.
1. CC[C@@]1(O)C(=O)OCc2c1cc1n(c2=O)Cc2cc3c(CN(C)C)c(O)ccc3nc2-1 [Topotecan HCl]
2. Cc1cc(C(C)Nc2ccccc2)c2nc(N3CCOCC3)cc(=O)n2c1 (stereo not given)

1: 12.8; 2: 105

----------
# Tested on: U2932 TK216-resistant clone 2
# method.description: cell proliferation relative to vehicle (% of vehicle); higher = less growth inhibition
# applied.conditions: 500 nM; 72 h
quantity.kind: cell proliferation
Answers are plain numbers.

[[record]]
molecule = "CC[C@H](CO)Nc1nc(NCc2ccccc2)c2ncn(C(C)C)c2n1 [Roscovitine (Seliciclib,CYC202)]"
test_system = "U2932 TK216-resistant clone 2"
quantity_kind = "cell proliferation"
measured_value = 102

[[record]]
molecule = "O=c1[nH]nc(Sc2ncc([N+](=O)[O-])s2)n1-c1ccc2c(c1)OCCO2"
test_system = "U2932 TK216-resistant clone 2"
quantity_kind = "cell proliferation"
measured_value = 94.6

[[record]]
molecule = "Clc1ccc(C2(c3ccc(-c4cn[nH]c4)cc3)CCNCC2)cc1"
test_system = "U2932 TK216-resistant clone 2"
quantity_kind = "cell proliferation"
measured_value = 48.2

[[record]]
molecule = "Cc1c(NC(=O)OC[C@@H]2COCCN2)cn2ncnc(Nc3ccc4c(cnn4Cc4cccc(F)c4)c3)c12"
test_system = "U2932 TK216-resistant clone 2"
quantity_kind = "cell proliferation"
measured_value = 80.4


Record cell proliferation for all entries; do not skip any.
1. CNC(=O)c1ccccc1Sc1ccc2c(/C=C/c3ccccn3)n[nH]c2c1 [Axitinib]
2. O=c1ncccn1[C@@H]1O[C@H](CO)[C@@H](O)[C@H]1O [Zebularine]
3. C[C@]12CC[C@@H]3c4ccc(O)cc4C[C@@H](CCCCCCCCC[S+]([O-])CCCC(F)(F)C(F)(F)F)[C@H]3[C@@H]1CC[C@@H]2O (stereo partly drawn) [Fulvestrant]
4. Cc1nnc(C(C)C)n1C1C[C@H]2CC[C@@H](C1)N2CC[C@H](NC(=O)C1CCC(F)(F)CC1)c1ccccc1 (stereo in doubt) [Maraviroc]

92.8
95.5
101
99.6
